B1: Chaperone Ric-8A, Q5E9J8 (parent)
chain: MEPRAVADALETGEEDVVMEALRAYNRENSQSFTFDDAQQEDRKRLAKLLVSVLEQGLPPSRRVIWLQSIRILSRDRSCLDSFTSRRSLQALACYAGISASQGSVPEPLNMDVVLESLKCLCNLVLSSPVAQALAAEAGLVVRLAERVGLCRQSSFPHDVQFFDLRLLFLLTALRTDVRQQLFQELQGVRLLTRALELTLGMTEGERHPELLPPQETERAMEILKVLFNITFDSIKREVDEEDAALYRHLGTLLRHCVMLAAAGDRTEELHGHAVNLLGNLPVKCLDVLLTLEPHEGSLEFLGVNMDVIRVLLSFMEKRLHQTHRLKESVAPVLSVLTECARMHRPARKFLKAQVLPPLRDVRTRPEVGELLRNKLVRLMTHLDTDVKRVAAEFLFVLCSESVPRFIKYTGYGNAAGLLAARGLMAGGRPEGQYSEDEDTDTDEYKEAKASINPVTGRVEEKPPNPMEGMTEEQKEHEAMKLVNMFDKLSRHRVIQPMGMSPRGQLTSLQDAMCETMEGQLSSDPDSDPD

variants of: B1; settings: Bos taurus; pH 7.5; Thermal; DSF; Tris-HCl; KCl; structure 6N85; whole UniProt chain shown
Measured Endpoint: change of melting temperature, mutant - wild type (higher = more stable) (°C)

> print(dat)
   variant.key  unit  recorded.result
1        F169R    °C             -1.2
2        A173W    °C             -1.2
3         R75M    °C             -0.9
4        N123E    °C             -0.1
